Just for reference, the Human Domainome abundance scans (Beltran et al. 2025) is where these values come from.

B1: POU domain, class 3, transcription factor 4, residues 280 to 335; numbered along this chain, P49335 (parent)
chain: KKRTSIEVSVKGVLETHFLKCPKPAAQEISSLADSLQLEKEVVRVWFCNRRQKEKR

- Variants of: B1
- Protocol details: abundance fitness (aPCA) (normalised: wild type 0, dead -1); higher = more abundant; growth selection in yeast, the domain comes from the species named
- Test parameters: Homo sapiens
Lab note: anything with abundance fitness at or over -0.2 counts as rule met; the rest go in rule not met.

Query: Please indicate if the recorded abundance fitness for L32A meets or exceeds -0.2.
Result: rule not met

Query: Please indicate if the recorded abundance fitness for L32E meets or exceeds -0.2.
Result: rule not met

Query: Please indicate if the recorded abundance fitness for C48R meets or exceeds -0.2.
Result: rule met

Query: Please indicate if the recorded abundance fitness for S31N meets or exceeds -0.2.
Result: rule met

Query: Please indicate if the recorded abundance fitness for K23I meets or exceeds -0.2.
Result: rule not met

Query: Please indicate if the recorded abundance fitness for Q37D meets or exceeds -0.2.
Result: rule met

Query: Please indicate if the recorded abundance fitness for E54W meets or exceeds -0.2.
Result: rule not met

Query: Please indicate if the recorded abundance fitness for W46H meets or exceeds -0.2.
Result: rule not met
